assay: in vitro; type: cell-based; conditions: human
parameterMeasured: viability at 8 h

Please supply the value of reported viability at 8 h for the item COC(=O)Nc1nc2ccc(C(=O)c3ccc(F)cc3)cc2[nH]1
> 89%

Values compiled from patent US20120202840A1.
